test system: Mycobacterium tuberculosis; test: Antibacterial activity against Mycobacterium tuberculosis H37Rv ATCC 27294T assessed as rifampin MIC at 2 ug/ml after 7 days by microdilution checkerboard assay; type: functional; settings: 168 h
VALUE_TYPE: MIC (mg/L)
Answer in mg/L, number only, no unit symbol.

Look over these answered cases.
CSc1ccc2c(c1)N(CCC1CCCCN1C)c1ccccc1S2 (stereo not given)	0.5
CCCSc1nnc(COc2ccccc2C2=NOC(c3ccc(Cl)cc3Cl)C2)n1NC(C)=O (stereo not given)	0.0156

Short answer on Mycobacterium tuberculosis for CCSc1nnc(COc2ccccc2C2=NOC(c3ccc(Cl)cc3Cl)C2)n1NC(C)=O (stereo not given) , MIC: 0.25

Summary: CCCSc1nnc(COc2ccccc2C2=NOC(c3ccc(Cl)cc3Cl)C2)n1NC(=O)c1ccccc1 (stereo not given) , Mycobacterium tuberculosis, MIC = 0.25

Measured on Mycobacterium tuberculosis, CCCSc1nnc(COc2ccccc2C2=NOC(c3ccc(Cl)cc3Cl)C2)n1NC(=O)CCl (stereo not given) has a documented MIC of 0.5

====

tested on: Mycobacterium tuberculosis; assay: Antibacterial activity against Mycobacterium tuberculosis H37Rv ATCC 27294T assessed as rifampin MIC at 4 ug/ml after 7 days by microdilution checkerboard assay; format: functional; details: 168 h
VALUE_TYPE: MIC (µg/mL)
Reply with just the number (in µg/mL).

CCSc1nnc(COc2ccccc2C2=NOC(c3ccc(Cl)cc3Cl)C2)n1NC(C)=O (stereo not given)	0.125

Memo: CCCSc1nnc(COc2ccccc2C2=NOC(c3ccc(Cl)cc3Cl)C2)n1NC(C)=O (stereo not given) , reported MIC: 0.0156

So, CSc1ccc2c(c1)N(CCC1CCCCN1C)c1ccccc1S2 (stereo not given) ? Its MIC was 0.5

MIC reading for CCCSc1nnc(COc2ccccc2C2=NOC(c3ccc(Cl)cc3Cl)C2)n1NC(=O)c1ccccc1 (stereo not given) : 0.25

Value of MIC reported for the molecule CCCSc1nnc(COc2ccccc2C2=NOC(c3ccc(Cl)cc3Cl)C2)n1NC(=O)CCl (stereo not given) is 0.5

====

# MIC values compiled below
system: Mycobacterium tuberculosis; experiment: Antibacterial activity against Mycobacterium tuberculosis H37Rv ATCC 27294T assessed as ofloxacin MIC at 2 ug/ml after 7 days by microdilution checkerboard assay; type: functional; conditions: 168 h
Please respond with the number in µg/mL and leave the unit unwritten.

Study these solved cases before continuing.
CCCSc1nnc(COc2ccccc2C2=NOC(c3ccc(Cl)cc3Cl)C2)n1NC(=O)c1ccccc1 (stereo not given)	2
CSc1ccc2c(c1)N(CCC1CCCCN1C)c1ccccc1S2 (stereo not given)	1
CCCSc1nnc(COc2ccccc2C2=NOC(c3ccc(Cl)cc3Cl)C2)n1NC(C)=O (stereo not given)	0.0312

The reported value for CCSc1nnc(COc2ccccc2C2=NOC(c3ccc(Cl)cc3Cl)C2)n1NC(C)=O (stereo not given) in terms of MIC is 1

Lab book: MIC of CCCSc1nnc(COc2ccccc2C2=NOC(c3ccc(Cl)cc3Cl)C2)n1NC(=O)CCl (stereo not given) noted as 2

====

test system: Mycobacterium tuberculosis; assay: Antibacterial activity against Mycobacterium tuberculosis H37Rv ATCC 27294T assessed as ofloxacin MIC at 16 ug/ml after 7 days by microdilution checkerboard assay; assay type: functional; settings: 168 h
# reported MIC; entries follow

Answered cases to consult:
CCCSc1nnc(COc2ccccc2C2=NOC(c3ccc(Cl)cc3Cl)C2)n1NC(=O)CCl (centres undefined)	1 µg/mL
COc1ccc(CCN(C)CCCC(C#N)(c2ccc(OC)c(OC)c2)C(C)C)cc1OC (centres undefined)	2 µg/mL
CCCSc1nnc(COc2ccccc2C2=NOC(c3ccc(Cl)cc3Cl)C2)n1NC(=O)c1ccccc1 (centres undefined)	2 µg/mL

MIC in this record for CCSc1nnc(COc2ccccc2C2=NOC(c3ccc(Cl)cc3Cl)C2)n1NC(C)=O (centres undefined) : 0.0312 µg/mL

====

The entries below are paired with their reported MIC.
tested on: Mycobacterium tuberculosis; test: Antibacterial activity against Mycobacterium tuberculosis H37Rv ATCC 27294T assessed as isoniazid MIC at 2 ug/ml after 7 days by microdilution checkerboard assay; type: functional; conditions: 168 h
Quick note: number first, unit second.

Reference set (4 entries):
CSc1ccc2c(c1)N(CCC1CCCCN1C)c1ccccc1S2 (stereo not given)	0.1 µg/mL
CCCSc1nnc(COc2ccccc2C2=NOC(c3ccc(Cl)cc3Cl)C2)n1NC(=O)CCl (stereo not given)	0.1 µg/mL
CCCSc1nnc(COc2ccccc2C2=NOC(c3ccc(Cl)cc3Cl)C2)n1NC(=O)c1ccccc1 (stereo not given)	0.1 µg/mL
CCSc1nnc(COc2ccccc2C2=NOC(c3ccc(Cl)cc3Cl)C2)n1NC(C)=O (stereo not given)	0.1 µg/mL

// MIC value for CCCSc1nnc(COc2ccccc2C2=NOC(c3ccc(Cl)cc3Cl)C2)n1NC(C)=O (stereo not given) : 0.0125 µg/mL
